# Tested on: A-549
# Assay summary: SRB colorimetric assay of cell growth and viability, A-549
# Format: cell-based, human
# Condition parameters: 48 hours exposure; read-out: LC50 A-549
Measure: CC50

Measured CC50, C/C=C1\NC(=O)[C@H](Cc2ccccc2)NC(=O)[C@@H](C(C)C)NC(=O)[C@@H]([C@@H](C)CC)NC(=O)[C@H](NC(=O)[C@H](NC(=O)[C@H](CCCN)NC(=O)[C@H]2CCCN2C(=O)[C@H](NC(=O)[C@@H](NC(=O)[C@@H](NC(=O)[C@@H](CCC(=O)O)NC(=O)CCCC(C)C)[C@@H](C)O)C(C)C)C(C)C)[C@@H](C)CC)[C@@H](C)OC(=O)[C@H](C(C)C)NC1=O [Compound 39, [D-Glu^13]-KF] : 6.63 µM

Measured CC50, C/C=C1\NC(=O)[C@H](Cc2ccccc2)NC(=O)[C@@H](C(C)C)NC(=O)[C@@H]([C@@H](C)CC)NC(=O)[C@H](NC(=O)[C@H](NC(=O)[C@H](CCCN)NC(=O)[C@H]2CCCN2C(=O)[C@H](NC(=O)[C@@H](NC(=O)[C@@H](NC(=O)[C@H](NC(=O)c2ccc3c(c2)OCO3)C(C)C)[C@@H](C)O)C(C)C)C(C)C)[C@@H](C)CC)[C@@H](C)OC(=O)[C@H](C(C)C)NC1=O [Compound 23, [Pipe^14]-KF] : 4.62 µM

Measured CC50, C/C=C1\NC(=O)[C@H](Cc2ccccc2)NC(=O)[C@@H](C(C)C)NC(=O)[C@@H]([C@@H](C)CC)NC(=O)[C@H](NC(=O)[C@H](NC(=O)[C@H](CCCN)NC(=O)[C@H]2CCCN2C(=O)[C@H](NC(=O)[C@@H](NC(=O)[C@@H](NC(=O)[C@H](NC(=O)c2ccc(C(F)(F)F)cc2)C(C)C)[C@@H](C)O)C(C)C)C(C)C)[C@@H](C)CC)[C@@H](C)OC(=O)[C@H](C(C)C)NC1=O [Compound 21, [p-CF3Bza^14]-KF] : 1.68 µM

The measurements presented in this section are drawn from patent US20070117743A1.
